# Run description: Cmax in BALB/c mouse brain at 250 mg/kg, IG measured at 0.5 to 24 hrs by HPLC-MS analysis
# Type: ADME, organism-based
# Design: time 0.5-24 hrs, dose 250 mg/kg, route ig
# Measurement conditions: po
Readout label: Cmax (ng/100 mg)
Report only the number, with the unit ng/100 mg understood.

Requested read-out: Cmax. Entry: N#C/C=C/c1ccc2c(S(=O)(=O)n3nc(Nc4ccc(C#N)c(Cl)c4)nc3N)cccc2c1
40.3

---

# Tested on: Human immunodeficiency virus 1
# Run description: Antiviral activity against wild type HIV1 IIIB infected in human TZM-bl cells
# Assay type: functional, organism-based
# Measurement conditions: Human immunodeficiency virus 1, IIIB
Readout label: pEC50
In plain terms, pEC50 is the concentration in mol/L turned into minus its base-10 logarithm.

Before answering, review these 2 worked examples.
| Compound | pEC50 |
| --- | --- |
| N#Cc1ccc2c(S(=O)(=O)n3nc(Nc4ccc(C#N)c(C#N)c4)nc3N)cccc2c1 | 9.68 |
| O=C1Nc2ccc(Cl)cc2[C@@](C#CC2CC2)(C(F)(F)F)O1 [EFAVIRENZ] | 9.17 |

What value of measured pEC50 is listed for Cc1cc(C)c(S(=O)(=O)n2nc(Nc3ccc(Cl)cc3)nc2N)c(C)c1 ?
7.49

---

Recorded pIC50 values (Human immunodeficiency virus type 1 reverse transcriptase (Human immunodeficiency virus 1)) are given below.
Note on pIC50: it is the negative log10 of concentration, concentration in mol/L.

Quick one: pIC50 of N#Cc1ccc2c(S(=O)(=O)n3nc(Nc4ccc(C#N)c(C#N)c4)nc3N)cccc2c1 ?
6.46

---

The following compounds are shown together with reported selectivity ratio values.
# Run description: Selectivity index, ratio of CC50 for cytotoxicity against human TZM-bl cells assessed as reduction in cell viability by MTS assay to EC50 for antiviral activity against HIV1 harboring A17 mutant infected in human TZM-bl cells
# Type: toxicity, cell-based
# Measurement conditions: read-out: Ratio CC50/EC50
// response body must contain only the number

// worked examples, selectivity ratio included
| Structure notation | selectivity ratio |
| --- | --- |
| N#Cc1ccc2c(S(=O)(=O)n3nc(Nc4ccc(C#N)c(C#N)c4)nc3N)cccc2c1 | 570 |
| N#Cc1ccc2c(S(=O)(=O)n3nc(Nc4ccc(C#N)c(Cl)c4)nc3N)cccc2c1 | 240 |
| N#Cc1ccc(Nc2nc(N)n(S(=O)(=O)c3cccc4cc(C#N)ccc34)n2)cc1 | 160 |

--- query ---
What does the data say about its selectivity ratio? Entry: N#C/C=C/c1ccc2c(S(=O)(=O)n3nc(Nc4ccc(C#N)c(Cl)c4)nc3N)cccc2c1
1200

---

# System: Human immunodeficiency virus 1
# Run description: Antiviral activity against wild type HIV1 IIIB infected in human TZM-bl cells
# Format: functional, organism-based
# Measurement conditions: Human immunodeficiency virus 1, IIIB
# pEC50 annotations
In plain terms, pEC50 is the concentration in mol/L turned into minus its base-10 logarithm.

Some entries whose results are on file:
| Structure notation | pEC50 |
| --- | --- |
| CN(C)c1cccc2c(S(=O)(=O)n3nc(Nc4ccc(Cl)cc4)nc3N)cccc12 | 7.97 |
| Cc1nc(C)c(S(=O)(=O)n2nc(Nc3ccc(C#N)c(Cl)c3)nc2N)s1 | 9.06 |
| N#C/C=C/c1ccc2c(S(=O)(=O)n3nc(Nc4ccc(CC#N)cc4)nc3N)cccc2c1 | 9.66 |
| N#Cc1ccc2c(S(=O)(=O)n3nc(Nc4ccc(C#N)c(Cl)c4)nc3N)cccc2c1 | 9.38 |

Item N#CCc1ccc2c(S(=O)(=O)n3nc(Nc4ccc(C#N)c(Cl)c4)nc3N)cccc2c1 with Human immunodeficiency virus 1 - pEC50?
9.22

Would you mind doing N#Cc1ccc(Nc2nc(N)n(S(=O)(=O)c3c(Cl)nc4sccn34)n2)cc1 as well?
8.75

---

// reported IC50 for each item listed
# Target or test system: Human immunodeficiency virus type 1 reverse transcriptase (Human immunodeficiency virus 1, UniProt Q72547)

| Structure notation | IC50 |
| --- | --- |
| Nc1nc(Nc2ccc(Cl)cc2)nn1S(=O)(=O)c1ccc2ccccc2c1 | 280 nM |
| N#Cc1ccc(Nc2nc(N)n(S(=O)(=O)c3cccc4cc(C#N)ccc34)n2)cc1 | 700 nM |

// switching to the query compound
Would you kindly share the measured IC50 for Cc1cc(/C=C/C#N)cc(C)c1Nc1ccnc(Nc2ccc(C#N)cc2)n1 ?
160 nM

---

# System: Human immunodeficiency virus 1
# Run description: Antiviral activity against wild type HIV1 IIIB infected in human TZM-bl cells
# Type: functional, organism-based
# Measurement conditions: Human immunodeficiency virus 1, IIIB
pEC50: −log10 of the molar value.
Readout label: pEC50

| Structure notation | Readout label | Result |
| --- | --- | --- |
| Cn1cnc(S(=O)(=O)n2nc(N)nc2Nc2ccc(Cl)cc2)c1 | pEC50 | > 7.00 |

Observed pEC50 on Human immunodeficiency virus 1 for Nc1nc(Nc2ccc(Cl)cc2)n(S(=O)(=O)c2ccc(Cl)s2)n1 , please.
> 7.00

Lookup Nc1nc(Nc2ccc(Cl)cc2)n(S(=O)(=O)c2cnn(-c3ccc(C(F)(F)F)cn3)c2)n1
> 7.00

Now this one: CC(=O)Nc1nc(C)c(S(=O)(=O)n2nc(Nc3cc(Cl)c(Cl)cc3Cl)nc2N)s1
< 6.00
